Cited source: patent US10434112B2

biological target: human FPR2 receptor (Homo sapiens (Human), UniProt P25090); assay: FLIPR Ca+2 response in HEK-Gα16 cells stably expressing the human FPR2 receptor; assay type: cell-based; parameters: unit not given here; settings: Table 4; value in brackets, given mostly as fraction
Sequence (P25090 whole entry): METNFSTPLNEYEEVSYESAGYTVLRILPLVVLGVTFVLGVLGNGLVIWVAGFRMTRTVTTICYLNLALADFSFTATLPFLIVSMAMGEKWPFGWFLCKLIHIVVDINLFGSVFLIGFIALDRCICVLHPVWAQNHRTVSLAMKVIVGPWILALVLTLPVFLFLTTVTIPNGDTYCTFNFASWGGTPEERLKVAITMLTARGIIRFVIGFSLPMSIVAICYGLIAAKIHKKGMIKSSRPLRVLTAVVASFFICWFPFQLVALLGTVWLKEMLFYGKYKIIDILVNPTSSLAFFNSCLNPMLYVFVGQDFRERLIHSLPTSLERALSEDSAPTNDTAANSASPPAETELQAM
Result type: FPR2 (% eff)
Please reply with the number alone, leaving off any unit.

Qu. Specify FPR2 (% eff) for CSc1ccc(NC(=O)C2C(C(=O)O)C3CCC2C32CC2)cc1 (stereo not shown) and stop.
Ans. 0.96

Qu. Specify FPR2 (% eff) for CSc1ccc(NC(=O)Nc2ccc3c(c2)C(=O)N(CCc2c[nH]cn2)C(c2ccc(Cl)cn2)C3)cc1 (stereo not shown) and stop.
Ans. 0.91

Qu. Specify FPR2 (% eff) for CCC[C@H](NC(=O)Nc1ccc(Br)cc1F)C(=O)NCC(N)=O and stop.
Ans. 0.96

Qu. Specify FPR2 (% eff) for CNC(=O)C1C(C(=O)Nc2ccc(Br)cc2)C2CCC1C21CC1 (stereo not shown) and stop.
Ans. 1.0

Qu. Specify FPR2 (% eff) for CC1(CCc2cccc(O)c2)NC(=O)N(NC(=O)Nc2ccc(Br)cc2)C1=O (stereo not shown) and stop.
Ans. 100

Qu. Specify FPR2 (% eff) for CSc1ccc(NC(=O)Nc2ccc3c(c2)C(=O)N(CCCN)[C@@H](c2ccc(C#N)cc2)C3)cc1 and stop.
Ans. 0.97

Qu. Specify FPR2 (% eff) for C[S+]([O-])c1ccc(NC(=O)Nc2ccc3c(c2)C(=O)N(CCCNC(=O)OC(C)(C)C)[C@@H](c2ccc(C#N)cc2)C3)cc1 (stereo partly shown) and stop.
Ans. 0.91

Qu. Specify FPR2 (% eff) for CC(C)C[C@H](NC(=O)Nc1ccc(Br)cc1F)C(=O)N[C@@H](C)C(=O)O and stop.
Ans. 0.95

Qu. Specify FPR2 (% eff) for CSc1ccc(NC(=O)Nc2ccc3c(c2)C(=O)N(CCCN)C(C)C3)cc1 (stereo not shown) and stop.
Ans. 1.00

Qu. Specify FPR2 (% eff) for O=C(Nc1ccc(Br)cc1)N[C@@H](Cc1ccccc1)C(=O)NCCO and stop.
Ans. 0.86

Qu. Specify FPR2 (% eff) for CC(C)CC(C)(NC(=O)Nc1ccc(Br)cc1)C(=O)NCC(=O)O (stereo not shown) and stop.
Ans. 0.99

Qu. Specify FPR2 (% eff) for CC(C)C[C@H](NC(=O)Nc1ccc(Br)cc1)C(=O)O and stop.
Ans. 0.77

Qu. Specify FPR2 (% eff) for CCC[C@H](NC(=O)Nc1ccc(Br)cc1)C(=O)NCC(=O)OC(C)C and stop.
Ans. 1.0

Qu. Specify FPR2 (% eff) for CCOP(=O)(CNC(=O)[C@H](CC(C)C)NC(=O)Nc1ccc(C(F)(F)F)cc1)OCC and stop.
Ans. 0.97

Qu. Specify FPR2 (% eff) for CC(C)C[C@H](NC(=O)Nc1ccc(Br)cc1)C(=O)N[C@H](C(N)=O)C(C)C and stop.
Ans. 1.0

Qu. Specify FPR2 (% eff) for CCC[C@H](NC(=O)Nc1ccc(Br)cc1)C(=O)NCP(=O)(OCC)OCC and stop.
Ans. 1.0

Qu. Specify FPR2 (% eff) for CCC[C@H](NC(=O)[C@H](CC(C)C)NC(=O)Nc1ccc(Br)cc1)C(=O)OC(C)(C)C and stop.
Ans. 1.0

Qu. Specify FPR2 (% eff) for CC1(CCc2ccc(O)cc2)NC(=O)N(NC(=O)Nc2ccc(Br)cc2)C1=O (stereo not shown) and stop.
Ans. 1.0

Qu. Specify FPR2 (% eff) for O=C(O)CNC(=O)[C@H](Cc1c[nH]c2ccccc12)NC(=O)Nc1ccc(Br)cc1 (stereo in doubt) and stop.
Ans. 98

Qu. Specify FPR2 (% eff) for CC1(CCc2ccccc2O)NC(=O)N(NC(=O)Nc2ccc(Br)cc2)C1=O (stereo not shown) and stop.
Ans. 0.93

Qu. Specify FPR2 (% eff) for CC(=O)CNC(=O)[C@H](CC(C)C)NC(=O)Nc1ccc(Br)cc1F and stop.
Ans. 0.99

Qu. Specify FPR2 (% eff) for CCOC(=O)C1CCC2(CC1)NC(=O)N(NC(=O)Nc1ccc(Br)cc1)C2=O (stereo not shown) and stop.
Ans. 0.99

Qu. Specify FPR2 (% eff) for CC(=O)CNC(=O)[C@H](Cc1ccccc1)NC(=O)Nc1ccc(Br)cc1F and stop.
Ans. 0.94

Qu. Specify FPR2 (% eff) for NC(=O)C1C(C(=O)Nc2ccc(Br)cc2)C2CCC1C21CC1 (stereo not shown) [Compound 30] and stop.
Ans. 0.96

Qu. Specify FPR2 (% eff) for CC(C)CC(C)(NC(=O)Nc1ccc(Br)cc1)C(=O)O (stereo not shown) and stop.
Ans. 0.98

Qu. Specify FPR2 (% eff) for CC(C)C[C@H](NC(=O)Nc1ccc(Br)cc1)C(=O)N[C@H](C(=O)O)c1ccccc1 and stop.
Ans. 1.0

Qu. Specify FPR2 (% eff) for CC1(CCc2cccc(O)c2)NC(=O)N(NC(=O)Nc2ccc(Br)cc2F)C1=O (stereo not shown) and stop.
Ans. 0.79

Qu. Specify FPR2 (% eff) for CC(C)C[C@H](NC(=O)Nc1ccc(Br)cc1)C(=O)NCC(C)(C)O and stop.
Ans. 0.93

Qu. Specify FPR2 (% eff) for CCC[C@H](NC(=O)Nc1ccc(Br)cc1)C(=O)NCC(N)=O and stop.
Ans. 0.97

Qu. Specify FPR2 (% eff) for CC1(CCc2ccco2)NC(=O)N(NC(=O)Nc2ccc(Br)cc2)C1=O (stereo not shown) and stop.
Ans. 0.99

Qu. Specify FPR2 (% eff) for CC(C)NC(=O)C1C(C(=O)Nc2ccc(Br)cc2)C2CCC1C21CC1 (stereo not shown) and stop.
Ans. 1.0

Qu. Specify FPR2 (% eff) for CC(C)C1(CC(=O)NC(CO)CO)NC(=O)N(NC(=O)Nc2ccc(Br)cc2)C1=O (stereo not shown) and stop.
Ans. 0.92

Qu. Specify FPR2 (% eff) for CSc1ccc(NC(=O)Nc2ccc3c(c2)C(=O)N(CCc2c[nH]cn2)C(c2ccc(Cl)o2)C3)cc1 (stereo not shown) and stop.
Ans. 0.81

Qu. Specify FPR2 (% eff) for O=C(O)C1C(C(=O)Nc2ccc(I)cc2)C2CCC1C21CC1 (stereo not shown) and stop.
Ans. 0.87

----------
molecular target: human FPR2 receptor (Homo sapiens (Human)); experiment: FLIPR Ca+2 response in HEK-Gα16 cells stably expressing the human FPR2 receptor; format: cell-based; design: unit not given here; conditions: Table 4; value in brackets, given mostly as fraction
Assignment: determine reported FPR2 (% eff) for the given compounds.
Please reply with the number alone, leaving off any unit.

Qu. Specify FPR2 (% eff) for CCC1(CC)NC(=O)N(NC(=O)Nc2ccc(Br)cc2F)C1=O and stop.
Ans. 1.0

Qu. Specify FPR2 (% eff) for NC(=O)C1C(C(=O)Nc2ccc(I)cc2)C2CCC1C21CC1 (centres unmarked) and stop.
Ans. 0.95

Qu. Specify FPR2 (% eff) for CCOP(=O)(CCNC(=O)CC1(C(C)C)NC(=O)N(NC(=O)Nc2ccc(Br)cc2)C1=O)OCC (centres unmarked) and stop.
Ans. 1.0

Qu. Specify FPR2 (% eff) for CCC[C@H](NC(=O)Nc1ccc(Br)cc1)C(=O)O and stop.
Ans. 1.0

Qu. Specify FPR2 (% eff) for O=C(Nc1ccc(Br)cc1F)N[C@@H](Cc1ccccc1)C(=O)NCCO and stop.
Ans. 0.98

Qu. Specify FPR2 (% eff) for CCC1(CCc2ccccc2)NC(=O)N(NC(=O)Nc2ccc(Br)cc2F)C1=O (centres unmarked) and stop.
Ans. 0.91

Qu. Specify FPR2 (% eff) for CC1(CCc2ccc(O)c(F)c2)NC(=O)N(NC(=O)Nc2ccc(Br)cc2)C1=O (centres unmarked) and stop.
Ans. 1.0

Qu. Specify FPR2 (% eff) for CC(C)C1(CC(=O)NCCO)NC(=O)N(NC(=O)Nc2ccc(Br)cc2F)C1=O (centres unmarked) and stop.
Ans. 0.98

Qu. Specify FPR2 (% eff) for CCC1(C(C)C)NC(=O)N(NC(=O)Nc2ccc(Br)cc2F)C1=O (centres unmarked) and stop.
Ans. 0.97

Qu. Specify FPR2 (% eff) for CC(C)C[C@H](NC(=O)Nc1ccc(C(F)(F)F)cc1)C(=O)NCc1nnn[nH]1 and stop.
Ans. 0.96

Qu. Specify FPR2 (% eff) for O=C(Nc1ccc(Br)cc1)[C@@H]1C2CCC([C@@H]1C(=O)O)C21CC1 (single isomer, unassigned) and stop.
Ans. 0.98

Qu. Specify FPR2 (% eff) for CSc1ccc(NC(=O)Nc2ccc3c(c2)C(=O)N(CCc2c[nH]cn2)C(c2ccc(Cl)nc2)C3)cc1 (centres unmarked) and stop.
Ans. 0.89

Qu. Specify FPR2 (% eff) for CCOP(=O)(O)CNC(=O)[C@H](CC(C)C)NC(=O)Nc1ccc(C(F)(F)F)cc1 and stop.
Ans. 0.91

Qu. Specify FPR2 (% eff) for CCNC(=O)C1C(C(=O)Nc2ccc(Br)cc2)C2CCC1C21CC1 (centres unmarked) and stop.
Ans. 1.0

Qu. Specify FPR2 (% eff) for CCC[C@H](NC(=O)Nc1ccc(Br)cc1)C(=O)NCC(=O)OC and stop.
Ans. 0.86

Qu. Specify FPR2 (% eff) for CCC[C@H](NC(=O)Nc1ccc(Br)cc1)C(=O)NCP(=O)(O)OCC and stop.
Ans. 0.96

Qu. Specify FPR2 (% eff) for CS(=O)(=O)c1ccc(NC(=O)Nc2ccc3c(c2)C(=O)N(CCc2c[nH]cn2)C(c2ccc(F)cn2)C3)cc1 (centres unmarked) and stop.
Ans. 1.0
